Target: T1, TNF receptor 1 Fc fusion protein (R&D Systems) (human, UniProt P19438 30-211, limits assumed)
T1 construct: bought; also called recombinant TNF receptor 1 (p55); TNFR1-Fc; not shown: Fc part of the bought fusion protein; not described
T1 sequence: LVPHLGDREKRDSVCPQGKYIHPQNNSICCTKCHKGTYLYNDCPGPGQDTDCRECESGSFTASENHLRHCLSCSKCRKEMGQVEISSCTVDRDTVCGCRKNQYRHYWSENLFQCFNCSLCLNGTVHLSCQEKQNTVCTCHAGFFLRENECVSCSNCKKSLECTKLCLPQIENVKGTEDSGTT
Experiment: receptor binding assay
pIC50: −log10 of the molar value.
METRIC: pIC50

[
  {
    "BINDER": "TAR2h-34 (other, anti-human TNFR1 dAb) EVQLLESGGGLVQPGGSLRLSCAASGFTFPEYGMAWVRQAPGKGLEWVSTISHGGEHTYYADSVKGRFTISRDNSKNTLYLQMNSLRAEDTAVYYCAQHPVSHPKFDYWGQGTLVTVSS",
    "pIC50": 6.52
  },
  {
    "BINDER": "TAR2h-10-4 (other, anti-human TNFR1 dAb) EVQLLESGGGLVQPGGSLRLSCAASGFTFEWYWMGWIRQAPGKGLEWVSAISGSGGSTYYADSVKGRFTISRDNSKNTLYLQMNSLRAEDTAVYYCAKVKLGGGPNFDYWGQGTLVTVSS",
    "pIC50": 8.10
  },
  {
    "BINDER": "TAR2h-10 (other, anti-human TNFR1 dAb; tied to the entry under the name TAR2-10; also called TAR2-10) EVQLLESGGGLVQPGGSLRLSCAASGFTFEWYWMGWVRQAPGKGLEWVSAISGSGGSTYYADSVKGRFTISRDNSKNTLYLQMNSLRAEDTAVYYCAKVKLGGGPNFDYWGQGTLVTVSS",
    "pIC50": 7.52
  },
  {
    "BINDER": "TAR2h-51 (other, anti-human TNFR1 dAb) EVQLLESGGGLVQPGGSLRLSCAASGFTFATYNMSWVRQAPGKGLEWVSAIDAGGMHTYYADSVKGRFTISRDNSKNTLYLQMNSLRAEDTAVYYCAKGTEPFDYWGQGTLVTVSS",
    "pIC50": 7.10
  },
  {
    "BINDER": "TAR2h-15 (other, anti-human TNFR1 dAb) EVRLLESGGGLVQPGGSLRLSCAASGFTFGKYTMTWVRQAPGKGLEWVSHISDDGNSTYYADSVKGRFTISRDNSKNTLYLQMNSLRAEDTAVYYCAKVPILAPRNLFDYWGQGTLVTVSS",
    "pIC50": 8.30
  }
]

(I) TAR2h-22 (other, anti-human TNFR1 dAb) EVQLLESGGGLVQPGGSLRLSCAASGFTFGEYNMAWVRQAPGKGQEWVSFISTGGHVTYYADSVKGRFTISRDNSKNTLYLQMNSLRAEDTAVYYCAKFSVRFRSSIFDYWGQGTLVTVSS
(II) TAR2h-47 (other, anti-human TNFR1 dAb) EVQLLESGGGLVQPGGSLRLSCAASGFTFPVYNMAWVRQAPGKGLEWVSFIAGNGQQTYYADSVKGRFTISRDNSKNTLYLQMNSLRAEDTAVYYCAKFASKVSPMSLTDFDYWGQGTLVTVSS
Input line: Returns the identifier with the smallest measured pIC50 among I and II . Refer to your chosen entry by its label in the reply.
Output line: I
